Answer each item with its documented half-life.
Assay: Murine serum stability assay
Assay type: in vitro ADME, mouse
Settings: male, CD-1, mouse, mouse serum; cyclic peptides, Table 12; read-out: Murine serum stability assay, T1/2

Recorded half-life, per entry:
{"compound": "CC(=O)N[C@@H](CCC(=O)O)C(=O)N[C@@H](Cc1c[nH]c2ccccc12)C(=O)N[C@H]1CSSC[C@@H](C(=O)N[C@@H](CCCNC(=N)N)C(=O)N[C@@H](CCC(N)=O)C(=O)N[C@H](C(=O)N[C@@H](CC(C)(C)C)C(=O)O)C(C)(C)C)NC(=O)[C@H]([C@@H](C)O)NC(=O)[C@@H]2CCCN2C(=O)[C@H](Cc2c[nH]cn2)NC(=O)[C@H](CC(N)=O)NC(=O)[C@H](Cc2c[nH]cn2)NC(=O)[C@H](CC(C)C)NC(=O)CNC1=O [Arb_cyclic_F3]", "observed measurement": "173 min"}
{"compound": "CCCC[C@@H]1NC(=O)[C@@H](NC(=O)[C@H](CCC(N)=O)NC(=O)[C@H](C)NC(C)=O)CSSC[C@@H](C(=O)N[C@@H](CCCNC(=N)N)C(=O)N[C@@H](CCC(N)=O)C(=O)N[C@H](C(=O)N[C@@H](CC(C)(C)C)C(=O)O)C(C)(C)C)NC(=O)[C@H](C)NC(=O)[C@H](CCCNC(=N)N)NC(=O)[C@H](CC(N)=O)NC(=O)[C@H](CCCNC(=N)N)NC(=O)CNC1=O [Arb_cyclic_C5]", "observed measurement": "46.1 min"}

Please turn your attention to the following entry.
Challenge: Need half-life of CC(=O)N[C@@H](CCCNC(=N)N)C(=O)N[C@@H](CC(=O)O)C(=O)N[C@H]1CSSC[C@@H](C(=O)N[C@@H](CCCNC(=N)N)C(=O)N[C@@H](CCC(N)=O)C(=O)N[C@H](C(=O)N[C@@H](CC(C)(C)C)C(=O)O)C(C)(C)C)NC(=O)[C@@H]2CCCN2C(=O)[C@@H]2CCCN2C(=O)[C@H](C)NC(=O)[C@H](CCCNC(=N)N)NC(=O)[C@H](CC(C)C)NC(=O)[C@H](CO)NC(=O)[C@H](C)NC1=O [Arb_cyclic_G2] , thanks.
Response given: 30.8 min
